Data origin: ChEMBL document CHEMBL5576074

IC50 overview
# target_or_test_system: Ectonucleotide pyrophosphatase/phosphodiesterase family member 1 (Homo sapiens, UniProt P22413)
# Sequence (P22413 whole entry): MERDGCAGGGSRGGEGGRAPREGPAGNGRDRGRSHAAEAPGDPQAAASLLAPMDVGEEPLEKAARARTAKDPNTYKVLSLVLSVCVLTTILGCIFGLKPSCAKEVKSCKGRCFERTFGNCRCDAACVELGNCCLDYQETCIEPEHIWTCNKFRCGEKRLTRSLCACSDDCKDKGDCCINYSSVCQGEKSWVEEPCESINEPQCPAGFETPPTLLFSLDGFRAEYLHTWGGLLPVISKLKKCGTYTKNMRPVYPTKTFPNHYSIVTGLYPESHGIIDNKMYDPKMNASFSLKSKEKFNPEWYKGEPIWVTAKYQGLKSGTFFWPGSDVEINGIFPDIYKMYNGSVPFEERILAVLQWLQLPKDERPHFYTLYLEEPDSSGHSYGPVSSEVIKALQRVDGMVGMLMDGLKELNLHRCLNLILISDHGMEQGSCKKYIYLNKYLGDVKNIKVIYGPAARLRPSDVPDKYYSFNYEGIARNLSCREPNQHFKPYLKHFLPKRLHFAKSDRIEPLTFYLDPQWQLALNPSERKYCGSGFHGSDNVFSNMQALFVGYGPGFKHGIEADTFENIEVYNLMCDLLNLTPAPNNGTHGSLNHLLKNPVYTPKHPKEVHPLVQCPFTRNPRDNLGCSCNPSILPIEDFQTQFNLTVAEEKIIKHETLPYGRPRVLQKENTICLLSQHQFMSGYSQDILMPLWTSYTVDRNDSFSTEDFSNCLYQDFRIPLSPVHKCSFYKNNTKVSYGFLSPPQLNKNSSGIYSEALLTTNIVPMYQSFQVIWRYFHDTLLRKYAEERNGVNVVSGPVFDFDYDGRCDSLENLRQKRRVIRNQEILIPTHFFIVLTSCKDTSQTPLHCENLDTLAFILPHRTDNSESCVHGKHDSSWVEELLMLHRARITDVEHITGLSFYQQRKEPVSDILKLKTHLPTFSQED
# assay_comment: Inhibition of ENPP1 (unknown origin) assessed as reduction in 2'3'-cGAMP hydrolysis by AMP-Glo assay
value_type: IC50 (µM)

>>> recorded_result("Cc1nc2ncnn2c(NCc2ccc(C(=O)O)cc2)c1Cc1cccc(N)c1")
9
>>> recorded_result("Cc1nc2ncnn2c(N(C)C)c1Cc1cccc(N)c1")
0.82
>>> recorded_result("Cc1nc2ncnn2c(N(C)C)c1Cc1cccc(O)c1")
1.4

====

Glycerophosphocholine cholinephosphodiesterase ENPP6 (Homo sapiens, UniProt Q6UWR7): recorded IC50 for assorted compounds
Sequence (Q6UWR7 whole entry): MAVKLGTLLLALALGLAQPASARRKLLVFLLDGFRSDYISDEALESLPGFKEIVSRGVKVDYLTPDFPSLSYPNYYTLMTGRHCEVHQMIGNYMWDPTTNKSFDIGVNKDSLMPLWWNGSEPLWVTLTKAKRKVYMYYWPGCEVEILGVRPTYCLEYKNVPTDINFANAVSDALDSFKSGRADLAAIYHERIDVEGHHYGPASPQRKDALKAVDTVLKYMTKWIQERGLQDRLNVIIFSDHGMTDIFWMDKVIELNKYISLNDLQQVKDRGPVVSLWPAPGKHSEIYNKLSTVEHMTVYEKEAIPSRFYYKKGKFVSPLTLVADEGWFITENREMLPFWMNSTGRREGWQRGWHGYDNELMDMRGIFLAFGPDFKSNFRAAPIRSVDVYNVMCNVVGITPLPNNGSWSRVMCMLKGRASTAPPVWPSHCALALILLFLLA
value_type: IC50

>>> recorded_result("Cc1nc2ncnn2c(NCc2cccnc2)c1Cc1cccc(N)c1")
"> 50 µM"
>>> recorded_result("CC(=O)Nc1ccc(Cc2c(C)nc3ncnn3c2N(C)C)cc1")
"> 50 µM"
>>> recorded_result("Cc1nc2ncnn2c(N(C)C)c1Cc1ccc(Cl)cc1")
"> 50 µM"
>>> recorded_result("C#CCNc1c(Cc2ccccc2)c(C)nc2ncnn12")
"> 50 µM"
>>> recorded_result("Cc1nc2ncnn2c(N(C)C)c1Cc1cccc([N+](=O)[O-])c1")
"> 50 µM"
>>> recorded_result("Cc1nc2ncnn2c(N(C)C)c1Cc1ccc(N)cc1")
"> 50 µM"
>>> recorded_result("Cc1nc2ncnn2c(N(C)Cc2ccccc2)c1Cc1cccc(N)c1")
"> 50 µM"
>>> recorded_result("COc1ccc(Cc2c(C)nc3ncnn3c2N(C)C)cc1OC")
"> 50 µM"
>>> recorded_result("Cc1nc2ncnn2c(N(C)C)c1Cc1cccc(F)c1")
"> 50 µM"
>>> recorded_result("Cc1nc2ncnn2c(N(C)C)c1Cc1cccc(O)c1")
"> 50 µM"
>>> recorded_result("CC(=O)Nc1cccc(Cc2c(C)nc3ncnn3c2N(C)C)c1")
"> 50 µM"
>>> recorded_result("CCCN(CCC)c1c(Cc2ccccc2)c(C)nc2ncnn12")
"> 50 µM"

====

# target_or_test_system: Glycerophosphocholine cholinephosphodiesterase ENPP6 (Homo sapiens)
# assay_comment: Inhibition of ENPP6 (unknown origin) at 50 uM relative to control
inhibition overview
value_type: inhibition

>>> recorded_result("Cc1nc2ncnn2c(N(C)C)c1CCc1ccccc1")
"< 1%"
>>> recorded_result("COc1ccc(Cc2c(C)nc3ncnn3c2N(C)C)cc1OC")
"< 1%"
>>> recorded_result("Cc1nc2ncnn2c(N(C)C)c1Cc1cccc(O)c1")
"< 1%"
>>> recorded_result("Cc1nc2ncnn2c(O)c1Cc1ccccc1")
"< 1%"
>>> recorded_result("Cc1nc2ncnn2c(N(C)C)c1Cc1ccccc1")
"< 1%"
>>> recorded_result("Cc1nc2ncnn2c(NCCCCC(=O)O)c1Cc1cccc(N)c1")
"3.5%"
>>> recorded_result("Cc1nc2ncnn2c(NCCCC(=O)O)c1Cc1cccc(N)c1")
"3.7%"
>>> recorded_result("C#CCNc1c(Cc2ccccc2)c(C)nc2ncnn12")
"< 1%"
>>> recorded_result("Cc1nc2ncnn2c(N(C)C)c1Cc1ccc(Cl)cc1")
"2%"
>>> recorded_result("Cc1cccc(Cc2c(C)nc3ncnn3c2N(C)C)c1")
"1.1%"
>>> recorded_result("Cc1nc2nc(SCC(=O)O)nn2c(N(C)C)c1Cc1ccccc1")
"< 1%"
>>> recorded_result("Cc1nc2ncnn2c(N(C)C)c1CC1CCCCC1")
"< 1%"
>>> recorded_result("Cc1nc2ncnn2c(N(C)C)c1Cc1cccc(Cl)c1")
"1.3%"
>>> recorded_result("Cc1nc2ncnn2c(NCc2ccccc2)c1Cc1cccc(N)c1")
"< 1%"
>>> recorded_result("Cc1nc2ncnn2c(N(C)C)c1Cc1cccc(N)c1")
"< 1%"
>>> recorded_result("Cc1nc2ncnn2c(N(C)Cc2ccccc2)c1Cc1cccc(N)c1")
"< 1%"
>>> recorded_result("Cc1nc2ncnn2c(NCc2cccnc2)c1Cc1cccc(N)c1")
"< 1%"
>>> recorded_result("Cc1nc2ncnn2c(N(C)C)c1Cc1ccccc1[N+](=O)[O-]")
"< 1%"
>>> recorded_result("CCN(CC)c1c(Cc2ccccc2)c(C)nc2ncnn12")
"< 1%"
>>> recorded_result("Cc1nc2ncnn2c(N(C)C)c1Cc1cccc(F)c1")
"< 1%"
>>> recorded_result("Cc1nc2ncnn2c(N(C)C)c1Cc1ccc([N+](=O)[O-])cc1")
"< 1%"
>>> recorded_result("CC(=O)Nc1cccc(Cc2c(C)nc3ncnn3c2N(C)C)c1")
"< 1%"
>>> recorded_result("COc1cccc(Cc2c(C)nc3ncnn3c2N(C)C)c1")
"< 1%"
>>> recorded_result("Cc1nc2ncnn2c(N(C)C)c1Cc1cccc(-c2ccccc2)c1")
"< 1%"
>>> recorded_result("Cc1nc2ncnn2c(N(C)C)c1Cc1ccccc1Cl")
"< 1%"

====

# target_or_test_system: Autotaxin (Homo sapiens, UniProt Q13822)
# assay_comment: Inhibition of ENPP2 (unknown origin) at 50 uM relative to control
Classification field: enter Y for inhibition values not below 8%, N for values below it.

>>> qualitative_label("Cc1nc2ncnn2c(N(C)C)c1Cc1ccccc1Cl")
"Y"
>>> qualitative_label("Cc1nc2ncnn2c(NCCCC(=O)O)c1Cc1cccc(N)c1")
"Y"
>>> qualitative_label("Cc1nc2ncnn2c(N(C)C)c1Cc1ccc([N+](=O)[O-])cc1")
"N"
>>> qualitative_label("Cc1nc2ncnn2c(N(C)Cc2ccccc2)c1Cc1cccc(N)c1")
"N"
>>> qualitative_label("Cc1nc2ncnn2c(N(C)C)c1Cc1cccc(O)c1")
"Y"
>>> qualitative_label("CCN(CC)c1c(Cc2ccccc2)c(C)nc2ncnn12")
"N"
>>> qualitative_label("CC(=O)Nc1ccc(Cc2c(C)nc3ncnn3c2N(C)C)cc1")
"N"
>>> qualitative_label("COc1ccc(Cc2c(C)nc3ncnn3c2N(C)C)cc1OC")
"N"
>>> qualitative_label("Cc1nc2ncnn2c(N(C)C)c1CCc1ccccc1")
"N"
>>> qualitative_label("COc1cccc(Cc2c(C)nc3ncnn3c2N(C)C)c1")
"Y"
>>> qualitative_label("Cc1nc2ncnn2c(NCc2ccccc2)c1Cc1cccc(N)c1")
"N"

====

# target_or_test_system: Ectonucleotide pyrophosphatase/phosphodiesterase family member 3 (Homo sapiens) (UniProt O14638)
# Sequence (whole entry): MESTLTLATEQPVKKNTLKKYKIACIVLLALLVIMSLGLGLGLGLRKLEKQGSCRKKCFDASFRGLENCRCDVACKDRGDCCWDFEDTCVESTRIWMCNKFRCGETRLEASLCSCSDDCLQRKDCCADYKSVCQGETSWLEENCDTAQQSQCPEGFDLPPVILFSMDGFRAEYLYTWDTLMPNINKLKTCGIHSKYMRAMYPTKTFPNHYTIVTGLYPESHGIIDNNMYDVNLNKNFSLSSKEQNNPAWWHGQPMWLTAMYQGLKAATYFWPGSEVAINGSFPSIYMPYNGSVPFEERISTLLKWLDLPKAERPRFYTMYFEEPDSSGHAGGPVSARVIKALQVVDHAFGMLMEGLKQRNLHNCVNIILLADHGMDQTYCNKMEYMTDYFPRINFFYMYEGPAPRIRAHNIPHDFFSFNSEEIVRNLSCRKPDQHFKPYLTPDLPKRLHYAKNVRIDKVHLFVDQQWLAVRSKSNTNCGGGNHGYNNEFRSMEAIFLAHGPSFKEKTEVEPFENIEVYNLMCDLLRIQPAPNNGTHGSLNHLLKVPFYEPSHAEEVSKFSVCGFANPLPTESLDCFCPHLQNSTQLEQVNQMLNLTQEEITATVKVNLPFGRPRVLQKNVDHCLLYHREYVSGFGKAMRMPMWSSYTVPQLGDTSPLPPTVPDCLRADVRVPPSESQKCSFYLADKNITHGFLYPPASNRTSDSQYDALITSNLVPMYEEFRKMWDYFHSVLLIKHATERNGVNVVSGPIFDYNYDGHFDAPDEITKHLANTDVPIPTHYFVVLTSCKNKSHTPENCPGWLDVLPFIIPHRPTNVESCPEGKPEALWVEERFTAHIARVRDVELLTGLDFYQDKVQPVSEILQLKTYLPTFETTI
# assay_comment: Inhibition of ENPP3 (unknown origin) assessed as reduction in ATP hydrolysis at 50 uM by AMP-Glo assay relative to control
inhibition overview
value_type: inhibition (%)

>>> recorded_result("Cc1nc2ncnn2c(N(C)C)c1Cc1ccccc1")
7.5
>>> recorded_result("Cc1nc2ncnn2c(N(C)C)c1Cc1cccc(N)c1")
4.2
>>> recorded_result("Cc1nc2ncnn2c(NCc2ccc(C(=O)O)cc2)c1Cc1cccc(N)c1")
1.6

====

# target_or_test_system: Ectonucleotide pyrophosphatase/phosphodiesterase family member 3 (Homo sapiens)
# Sequence (whole entry): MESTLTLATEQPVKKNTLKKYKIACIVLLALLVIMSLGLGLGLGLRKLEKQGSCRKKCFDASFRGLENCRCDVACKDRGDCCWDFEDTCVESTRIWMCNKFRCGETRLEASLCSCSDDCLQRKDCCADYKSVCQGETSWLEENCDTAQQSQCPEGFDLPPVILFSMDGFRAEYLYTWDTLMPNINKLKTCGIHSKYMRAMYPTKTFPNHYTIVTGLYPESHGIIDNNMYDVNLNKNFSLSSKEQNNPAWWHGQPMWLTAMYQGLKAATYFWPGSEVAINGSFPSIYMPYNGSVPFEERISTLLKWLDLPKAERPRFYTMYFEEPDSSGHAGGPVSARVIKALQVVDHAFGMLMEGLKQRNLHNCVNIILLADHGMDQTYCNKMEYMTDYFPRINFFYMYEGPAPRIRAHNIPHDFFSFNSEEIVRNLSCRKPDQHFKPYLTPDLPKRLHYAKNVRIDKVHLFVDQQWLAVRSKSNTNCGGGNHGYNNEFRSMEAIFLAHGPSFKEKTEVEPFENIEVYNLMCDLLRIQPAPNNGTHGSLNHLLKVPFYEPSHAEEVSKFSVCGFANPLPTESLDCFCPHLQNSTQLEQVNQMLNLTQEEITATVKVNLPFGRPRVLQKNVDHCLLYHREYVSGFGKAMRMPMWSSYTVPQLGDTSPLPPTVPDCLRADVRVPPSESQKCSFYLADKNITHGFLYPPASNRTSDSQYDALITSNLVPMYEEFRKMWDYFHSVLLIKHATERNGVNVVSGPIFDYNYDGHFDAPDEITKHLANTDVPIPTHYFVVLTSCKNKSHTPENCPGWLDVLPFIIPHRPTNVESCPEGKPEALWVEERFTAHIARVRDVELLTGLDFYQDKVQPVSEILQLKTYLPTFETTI
# assay_comment: Inhibition of ENPP3 (unknown origin) at 50 uM relative to control
value_type: inhibition (%)

>>> recorded_result("Cc1nc2ncnn2c(N(C)C)c1Cc1cccc(Cl)c1")
8.7
>>> recorded_result("CCCNc1c(Cc2ccccc2)c(C)nc2ncnn12")
5.2
>>> recorded_result("Cc1nc2ncnn2c(NCCCC(=O)O)c1Cc1cccc(N)c1")
11
>>> recorded_result("Cc1nc2ncnn2c(NCCO)c1Cc1ccccc1")
4.3
>>> recorded_result("Cc1nc2ncnn2c2c1Cc1ccccc1N2")
21
>>> recorded_result("Cc1nc2ncnn2c(N(C)C)c1Cc1ccc(N)cc1")
12
>>> recorded_result("Cc1nc2ncnn2c(N(C)C)c1CCc1ccccc1")
3.6
>>> recorded_result("Cc1nc2ncnn2c(NCCCCC(=O)O)c1Cc1cccc(N)c1")
22
>>> recorded_result("Cc1nc2ncnn2c(NCc2cccnc2)c1Cc1cccc(N)c1")
12
>>> recorded_result("Cc1nc2ncnn2c(NCc2ccccc2)c1Cc1cccc(N)c1")
11
>>> recorded_result("Cc1nc2ncnn2c(N(C)C)c1Cc1cccc(O)c1")
24
>>> recorded_result("COc1ccc(Cc2c(C)nc3ncnn3c2N(C)C)cc1OC")
4.6
>>> recorded_result("COCCNc1c(Cc2ccccc2)c(C)nc2ncnn12")
3.3
>>> recorded_result("Cc1nc2ncnn2c(O)c1Cc1ccccc1")
2.4
>>> recorded_result("CNc1c(Cc2ccccc2)c(C)nc2ncnn12")
10
>>> recorded_result("Cc1nc2ncnn2c(N(C)C)c1Cc1cccc(-c2ccccc2)c1")
5.9
>>> recorded_result("Cc1nc2ncnn2c(N(C)C)c1Cc1ccccc1")
6.3
>>> recorded_result("Cc1cc(O)n2ncnc2n1")
5.1
>>> recorded_result("COc1cccc(Cc2c(C)nc3ncnn3c2N(C)C)c1")
6.5
>>> recorded_result("CC(=O)Nc1ccc(Cc2c(C)nc3ncnn3c2N(C)C)cc1")
8.5
>>> recorded_result("Cc1nc2ncnn2c(N(C)C)c1Cc1cccc(N)c1")
24
>>> recorded_result("Cc1nc2ncnn2c(N(C)C)c1Cc1cccc(F)c1")
6.3
